Reference source for all entries: paper PMC10321640

- Assay remarks: In vivo pharmacokinetic study, plasma LC-MS/MS
- Recorded conditions: mouse, iv, 1 nmol/g body weight, i.v., male ICR mice, mean ± SD, n = 3, read-out: AUC0-inf, pred
Where a SMILES comes first, the peptide text is derived from it. Bridges are numbered along the chain shown (N, C = ends).
Reported endpoint: AUC(0-inf) (µM·h)
Use µM·h as the unit, but write only the number.

compound CC[C@H](C)[C@H](NC(=O)[C@H](CC(C)C)NC(=O)[C@@H]1CC(=O)NCCCC[C@@H]2NC(=O)[C@@H]3CCCN3C(=O)[C@H](CC(C)C)NC(=O)[C@H](Cc3ccc(O)cc3)NC(=O)[C@@H]3CCCN3C(=O)[C@@H]3CCCN3C(=O)[C@@H](NC(C)=O)CSSC[C@H](NC(=O)[C@H](CC(C)C)NC(=O)[C@H](Cc3ccc(O)cc3)NC2=O)C(=O)N1)C(N)=O [KS-133] (Ac-CPPYLPKYLCDLI-NH2; disulfide 1-10; lactam 7-11) , AUC(0-inf) observed: 10.1

---

- Assay remarks: In vivo pharmacokinetic study, plasma LC-MS/MS
- Recorded conditions: mouse, iv, 1 nmol/g body weight, i.v., male ICR mice, non-compartmental, mean ± SD, n = 3, read-out: t1/2 (elimination half-life from plasma) (converted)
Where a SMILES comes first, the peptide text is derived from it. Bridges are numbered along the chain shown (N, C = ends).
Reported endpoint: half-life (min)
Expressed in min, but write only the number.

Data point: CC[C@H](C)[C@H](NC(=O)[C@H](CC(C)C)NC(=O)[C@@H]1CC(=O)NCCCC[C@@H]2NC(=O)[C@@H]3CCCN3C(=O)[C@H](CC(C)C)NC(=O)[C@H](Cc3ccc(O)cc3)NC(=O)[C@@H]3CCCN3C(=O)[C@@H]3CCCN3C(=O)[C@@H](NC(C)=O)CSSC[C@H](NC(=O)[C@H](CC(C)C)NC(=O)[C@H](Cc3ccc(O)cc3)NC2=O)C(=O)N1)C(N)=O [KS-133] (Ac-CPPYLPKYLCDLI-NH2; disulfide 1-10; lactam 7-11) ; half-life = 40.8

---

- Assay remarks: In vivo pharmacokinetic study, plasma LC-MS/MS
- Recorded conditions: mouse, iv, 1 nmol/g body weight, male ICR mice, mean ± SD, n = 3
Where a SMILES comes first, the peptide text is derived from it. Bridges are numbered along the chain shown (N, C = ends).
Reported endpoint: AUC(0-t)
Answer by giving the amount and then stating its unit.

The reported AUC(0-t) of the molecule CC[C@H](C)[C@H](NC(=O)[C@H](CC(C)C)NC(=O)[C@@H]1CC(=O)NCCCC[C@@H]2NC(=O)[C@@H]3CCCN3C(=O)[C@H](CC(C)C)NC(=O)[C@H](Cc3ccc(O)cc3)NC(=O)[C@@H]3CCCN3C(=O)[C@@H]3CCCN3C(=O)[C@@H](NC(C)=O)CSSC[C@H](NC(=O)[C@H](CC(C)C)NC(=O)[C@H](Cc3ccc(O)cc3)NC2=O)C(=O)N1)C(N)=O [KS-133] (Ac-CPPYLPKYLCDLI-NH2; disulfide 1-10; lactam 7-11) was 7.51 µM·h
